Source listed as PubChem BioAssay (NCI).

# System: HL-60(TB) leukemia
# measurement_notes: NCI tumour cell line growth inhibition, 48 h
value_kind: log10 TGI (log10 of the value in µM)

* CN(C)CC[C@H](CSc1ccccc1)Nc1ccc(S(=O)(=O)NC(=O)c2ccc(N3CCN(Cc4ccccc4-c4ccc(Cl)cc4)CC3)cc2)cc1[N+](=O)[O-] | 0.66
* CCCCCCCCCCCC[S+](C)C | 1.15
* O=C(O)CN1CCNCCN(CC(=O)O)CCN(CC(=O)O)CCNCC1 | 1.81
* O=C(Nc1ccc(Br)cc1F)c1cc(Cl)ccc1O | 0.50
* CCN1CN(c2ccccc2)C2(CCN(CC3COc4ccccc4O3)CC2)C1=O (stereo not given) | 1.66
* C=C1CC(C#N)(C#N)[C@H]2C3CCCC3C[C@@H]12 (stereo not given in full) (tested in a mixture with another compound) | 1.73

###

# System: SF-295 CNS
# measurement_notes: NCI tumour cell line growth inhibition, 48 h
value_kind: TGI

* CCCNc1ncnc2c1ncn2C | > 100 µM
* CCCCCCCCCCCCCCCC(=O)OCCOCCOCCOCc1ccccc1 | 98.4 µM
* COc1ccc(-c2nnc3n(C)c(=O)c4ccccc4n23)cc1N | > 100 µM
* O=C1CC2(CCC(O)(c3ccc4ccccc4c3)C(C(=O)c3ccc4ccccc4c3)C2)C(=O)c2ccccc2N1 (centres undefined) | > 100 µM
* COC(=O)/C=C\C(C#N)(C#N)N=Cc1ccc(C)cc1 | 51 µM
* NC(N)=N/N=C/c1c(Cl)cccc1Cl | 30.2 µM
* COC(=O)c1ccc2c(c1)C(=O)c1c-2n(CCCN=[N+]=[N-])c(=O)c2cc(OC)c(OC)cc12 | > 100 µM
* C/C(C[n+]1ccccc1)=N\N=C(N)N | > 100 µM
* Oc1cc(Cl)cc2cccnc12 | 15.9 µM
* O=C(/C(=C/c1ccc(Cl)cc1)c1ccccc1)c1ccccc1 | 39.7 µM
* O=C(O)COc1ccccc1C(=O)Nc1ccccc1 | > 100 µM
* Clc1ccc(-c2nnc3sc4nc5ccccc5c-4nn23)c(Cl)c1 | > 100 µM
* Cc1c(O)nc(-n2[nH]c3c(c2=O)CCCC3)[nH]c1=O | > 100 µM
* COc1ccc(-c2nc(SCC(=O)NNC(=S)Nc3ccccc3)[nH]c2-c2ccc(OC)cc2)cc1 | 39.8 µM
* O=C1N=C2Sc3ccc4ccccc4c3N2C1=O | 36.5 µM
* CC(O)CNC(=O)C(C)Oc1ccc(OCC2CCCCC2)cc1 (centres undefined) | > 100 µM
* Nc1c(C(=O)N/N=C/c2ccccc2)sc(=S)n1-c1ccccc1 | > 100 µM
* Cc1nc(N)sc1N=Nc1ccccc1Br | 97.7 µM
* CCCCCCCCCCCCCCCCNc1cccc2ccccc12 | > 100 µM
* S=C1NC2=C(CSC/C2=C\c2cccc(Br)c2)C(c2cccc(Br)c2)N1 (centres undefined) | > 100 µM
* Cc1cc2c(=O)c3ccccc3[nH]c2c(C(N)=O)c1C | > 100 µM
* S=c1[nH]c(=S)c2cc3ccccc3nc2[nH]1 | > 100 µM
* O=C1c2ccccc2C(=O)N1n1c(Cc2ccc([N+](=O)[O-])cc2)n[nH]c1=O | > 100 µM
* O=C(NC[C@H](O)CN1CCc2ccccc2C1)c1cc(NC2COC2)ncn1 | > 100 µM

###

Reported TGI values are given for each entry in this list.
# System: HS 578T breast
# measurement_notes: NCI tumour cell line growth inhibition, 48 h
value_kind: TGI

* O=C(O)CN1CCNCCN(CC(=O)O)CCN(CC(=O)O)CCNCC1 | > 100 µM
* Cc1nc(Nc2cccnc2)sc1C(=O)/C=C/c1ccc(F)cc1 | > 100 µM
* CC1=CCC([C@@](C)(O)CCCC(C)(C)N=C=S)CC1 (stereo not given in full) | 55.4 µM
* COc1ccc(C(=O)/C=C/c2ccc(OCCCOc3ccc(/C=C/C(=O)c4ccc(OC)cc4)cc3)cc2)cc1 | > 100 µM
* O=C(NCP(=O)(Oc1ccccc1)Oc1ccccc1)OCc1ccccc1 | > 100 µM
* C=CCc1cc(-c2nc(=S)[nH][nH]2)ccc1N=NNc1ccc(C(=O)O)cc1 | > 100 µM
* CN1CCN(c2ccc(Nc3cc(-c4cccc(-n5ccc6cc(C7CC7)cc(F)c6c5=O)c4CO)cn(C)c3=O)nc2)CC1 | 25.3 µM
* COc1cc(Cl)cc(-c2nn(-c3cccc(NC(=O)c4ccc(N5CCOCC5)c(C(F)(F)F)c4)c3)cc2-c2ccncc2)c1 | > 100 µM
* O=C1NC2c3c(I)sc(I)c3C(O)C2O1 (stereo not given) | > 100 µM
* COc1ccc2nc3ccccc3c(NCc3ccc(F)cc3)c2c1 | 12.1 µM
* O=[N+]([O-])C(=C(Nc1cccc2cccnc12)Nc1cccc2cccnc12)C(Cl)=C(Cl)Cl | > 100 µM
* O=C1CC2(CCC(O)(c3ccc4ccccc4c3)C(C(=O)c3ccc4ccccc4c3)C2)C(=O)c2ccccc2N1 (stereo not given) | > 100 µM
* CCN1CN(c2ccccc2)C2(CCN(CC3COc4ccccc4O3)CC2)C1=O (stereo not given) | 60.2 µM
* COc1cnc2c(c1)C(=O)c1c-2n(CCCNC2=NCCS2)c(=O)c2cc([N+](=O)[O-])ccc12 | 4.54 µM
* CN(C)C1CCN(C(=O)c2ccc(NC(=O)Nc3ccc(-c4nc(N5CCOCC5)c5cccn5n4)cc3)cc2)CC1 | 0.0926 µM
* CCOS(C)(=O)=O | > 100 µM
* COc1ccc(C(=O)Nc2ccc(O)c(=O)cc2)cc1 | > 100 µM
* COC(C)(C)C1(O)CC[C@@H](C)CC1=O (stereo not given in full) | > 100 µM
* CCN(CC)CCNc1nc(N)c(C#N)c(C#N)c1C#N | > 10 µM
* CCOC(=O)c1cccc(N=Nc2nc[nH]c2/C=C/C(=O)OC)c1 | > 100 µM
* CN(C)CC[C@H](CSc1ccccc1)Nc1ccc(S(=O)(=O)NC(=O)c2ccc(N3CCN(Cc4ccccc4-c4ccc(Cl)cc4)CC3)cc2)cc1[N+](=O)[O-] | > 100 µM
* NS(=O)(=O)c1ccc(NC(=S)/N=C/C2=C(O)c3ccccc3C2=O)cc1 | > 100 µM
* C/C(C[n+]1ccccc1)=N\N=C(N)N | > 100 µM
* CCCCCC#CCOC(=O)C(=[N+]=[N-])P(=O)(c1ccccc1)c1ccccc1 | > 10 µM
* CCOc1cc(/C=C2/C(C)=NN(c3cccc(Cl)c3)/C2=N/c2nc3ccccc3s2)ccc1O | 68.6 µM
* Cc1ccc(C2=CC(=O)OC(C[P+](c3ccccc3)(c3ccccc3)c3ccccc3)(c3ccccc3)O2)cc1 (stereo not given) | 42.6 µM
* Cc1cccc(C)c1NC(=O)C(Cc1c[nH]c2ccccc12)NC(=O)OCc1ccccc1 (stereo not given) | > 100 µM
* BrC(=C(c1ccc(OC2CCCCO2)cc1)c1ccc(OC2CCCCO2)cc1)c1ccccc1 (stereo not given) | > 100 µM
* O=c1oc2cc(O)ccc2c(O)c1C(c1ccccc1)c1c(O)c2ccc(O)cc2oc1=O | > 100 µM
* COc1cc(N(CCC#N)CCC#N)ccc1/C(N=Nc1ccc(Cl)cc1)=N/NC(=O)c1cc(Br)ccc1O | > 150 µg/mL
* Cc1nn(-c2ccccc2)c2c1C(c1cc3ccccc3nc1Cl)NC(=O)N2 (stereo not given) | 96.2 µM
* C/C(=N\N=C1/C(=O)OC(c2ccccc2)=C1C(=O)c1ccccc1)c1ccc([N+](=O)[O-])cc1 | > 100 µM
* CC(NCCC(c1ccccc1)c1ccccc1)c1ccccc1 (stereo not given) | 23.9 µM
* O=C1OC(C2Cc3ccc4ccccc4c3C2=O)c2ccccc21 (stereo not given) | 88.9 µM
* C[C@H](CCC(=O)O)[C@H]1CC[C@H]2[C@@H]3C(=O)C[C@@H]4C[C@H](O)CC[C@]4(C)[C@H]3C[C@H](O)[C@]12C | 78.9 µM
* CC(=O)NC1C(OCc2ccccc2)OC(CO)C(O)C1OCC(=O)N[C@@H](C)C(=O)N[C@H](CCC(=O)NCCCNc1c2ccccc2nc2cccc([N+](=O)[O-])c12)C(N)=O (stereo not given in full) | 0.675 µM
* Cc1cc(/N=C/c2ccc(N(C)C)cc2)n(-c2ccccc2)n1 | > 100 µM
* CC(=O)Nc1ccc(-c2csc(Nc3cccc(-c4csc(C)n4)c3)n2)cc1 | > 30.4 µM
* S=c1c2cn[nH]c2nc2scc(-c3ccc(Cl)cc3)n12 | 38.8 µM
* C[C@@H]1C[C@@H]([C@@H](CC2CC(=O)NC(=O)C2)OC(=O)CC(=O)c2ccccc2)C(=O)[C@@H](C)C1 | 10.9 µM

###

# Test system: ACHN renal
# measurement_notes: NCI tumour cell line growth inhibition, 48 h
value_kind: TGI

* CC(O)CNC(=O)C(C)Oc1ccc(OCC2CCCCC2)cc1 (centres undefined) | > 100 µM
* Clc1cc2c(c(CSc3nc4ccccc4n4cccc34)c1)OCOC2 | > 100 µM
* COc1cc(C(=O)N2CCN(C(=O)c3cc(OC)c(OC)c(OC)c3)C2=S)cc(OC)c1OC | 34.5 µM
* COc1ccc2nc3ccccc3c(NCc3ccc(F)cc3)c2c1 | 6.68 µM
* C=C1CC(C#N)(C#N)[C@H]2C3CCCC3C[C@@H]12 (some centres undefined) (tested in a mixture with another compound) | 61.1 µM
* COC(=O)C(Cc1ccc2c(c1)CCC2)Cc1ccc2c(c1)CCC2 | > 100 µM
* C[C@H](CCC(=O)O)[C@H]1CC[C@H]2[C@@H]3C(=O)C[C@@H]4C[C@H](O)CC[C@]4(C)[C@H]3C[C@H](O)[C@]12C | > 100 µM
* Cc1nc(C)c(N2CCN([N+](=O)[O-])CC2)c(=O)[nH]1 | > 100 µM
* CN(C)CC[C@H](CSc1ccccc1)Nc1ccc(S(=O)(=O)NC(=O)c2ccc(N3CCN(Cc4ccccc4-c4ccc(Cl)cc4)CC3)cc2)cc1[N+](=O)[O-] | > 50.6 µM
